FYI, the data here is from PubChem BioAssay AID1851.

Target: Cytochrome P450 2C19 (Homo sapiens) (UniProt P33261)
Sequence (P33261 whole entry, looked up): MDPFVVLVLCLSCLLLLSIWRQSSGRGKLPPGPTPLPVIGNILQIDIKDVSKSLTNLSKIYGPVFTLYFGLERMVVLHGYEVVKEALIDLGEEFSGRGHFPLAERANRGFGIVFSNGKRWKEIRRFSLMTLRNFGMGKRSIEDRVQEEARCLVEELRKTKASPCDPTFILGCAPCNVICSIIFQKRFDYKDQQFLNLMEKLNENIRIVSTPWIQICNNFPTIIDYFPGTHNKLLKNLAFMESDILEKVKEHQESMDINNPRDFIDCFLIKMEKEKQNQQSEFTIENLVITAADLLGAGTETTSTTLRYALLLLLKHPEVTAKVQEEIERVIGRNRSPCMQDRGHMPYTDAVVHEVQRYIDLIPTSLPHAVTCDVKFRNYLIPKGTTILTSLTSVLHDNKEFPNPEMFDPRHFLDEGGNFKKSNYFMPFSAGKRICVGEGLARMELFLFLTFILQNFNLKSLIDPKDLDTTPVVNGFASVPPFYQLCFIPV
Experiment: Cytochrome panel assay with activity outcomes
Settings: recombinant CYP, pro-luciferin dealkylation, luminescence, p450-cyp2c19; series mostly up to 57.1 µM
The whole screen tested about 16,000 compounds, of which about 5,800 (36%) were called active. Not shown: some 23% with an inconclusive outcome. Calls follow the shape of the dose curve; as a rule, active = well fitted curve in the direction sought with a large enough effect; inconclusive = small, poorly fitted or top-dose-only effect, or effect the other way; inactive = no such curve, though single readings can be large or run the other way. The list shows a part of the results.
Outcome codes: T (active), F (inactive)

SMILES_STRING	ASSIGNED_CLASS
Cc1nc(N=Nc2cc(S(=O)(=O)O)ccc2S(=O)(=O)O)c(COP(=O)(O)O)c(C=O)c1O	F
C[C@@]12CCC(=O)C=C1CC[C@H]1[C@H]3CC[C@](O)(C(=O)CO)[C@]3(C)CC(=O)[C@@H]12	F
CCCCOc1cc(C[C@@H]2CNC(=O)N2)ccc1OC	F
O=C(CCc1ccccc1)NNC(=O)C1CCCCC1	T
COc1ccc(C(=O)N2CCC[C@@]3(CCN(c4cccc(-c5ccccc5)c4)C3)C2)cc1	T

---

Molecular target: Cytochrome P450 2C19 (Homo sapiens)
Assay: Cytochrome panel assay with activity outcomes
Conditions: recombinant CYP, pro-luciferin dealkylation, luminescence, p450-cyp2c19; series mostly up to 57.1 µM
Out of some 16,000 compounds screened, about 5,800 (36%) were called active. About 23% were inconclusive and are not listed. The call rests on the fitted dose curve; in most records, active means well fitted curve in the direction sought with a large enough effect; inconclusive means small, poorly fitted or top-dose-only effect, or effect the other way; inactive means no such curve, though single readings can be large or run the other way. Some of the results follow.
Outcome codes: true (1) = active, false (0) = inactive

MOLECULE	ASSIGNED_CLASS
CCOC(=O)c1ccccc1Oc1c(F)c(F)nc(NCCO)c1F	true (1)
CC[C@H](Cc1c(I)cc(I)c(N)c1I)C(=O)O	false (0)
Cc1noc(C)c1C(=O)N1CCC[C@@]2(CCN(C(=O)NC(C)C)C2)C1	false (0)
O=C1CC(NCCC2=CCCCC2)C(=O)N1c1cccc(Cl)c1Cl (stereo unspecified)	true (1)
CCCCc1[nH]c(=O)c(C#N)c2c1CCCC2	false (0)
COCCN1C(=O)c2ccccc2C(C(=O)Nc2ccc3c(c2)OCCO3)C1c1ccc(F)cc1 (stereo unspecified)	true (1)
